Target: Bcl-xL, Q07817
Sequence (Q07817 1-209): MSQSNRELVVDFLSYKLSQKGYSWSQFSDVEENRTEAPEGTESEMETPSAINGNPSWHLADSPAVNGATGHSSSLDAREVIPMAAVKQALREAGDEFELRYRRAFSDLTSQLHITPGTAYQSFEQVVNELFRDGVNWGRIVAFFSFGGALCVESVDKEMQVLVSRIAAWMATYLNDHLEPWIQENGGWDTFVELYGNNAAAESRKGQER
Assay: peptide SPOT array, c-Myc-tagged receptor at 1 uM or 100 nM, anti-c-Myc-Cy3
PARAMETER MEASURED: SPOT signal as a fraction of Bim BH3's signal on the same receptor and array

Examples with answers:
[[record]]
binder = "EGMRTILVDWLVEVGEEYKLRAETLY [CCNA1]"
measured = 0.05

[[record]]
binder = "ISSYMVLAPVFGYLGDRYNRKYLMCG [SPNS1]"
measured = 1.64


P: ACGDSVLARMLRELGDSLRRPQLRLW [SLC19A1]
Q: TETKATFGVHDKIVGDWTERFRDLLL [NOX4]
Choose between P and Q : whose measured SPOT signal as a fraction of Bim BH3's signal on the same receptor and array value is numerically larger? Let me know the label of the one you choose.
P
